For each of the binders below, state its pEC50.
- target-entity: T1, Human IL-33-his (human, UniProt O95760 112-270, biotinylated with EZ-Link NHS-Biotin where used as IL-33-his-biotin)
- T1 construct: Used plain (SPR, cell assays) and biotinylated (ELISA); also called IL-33-his-biotin
- T1 sequence: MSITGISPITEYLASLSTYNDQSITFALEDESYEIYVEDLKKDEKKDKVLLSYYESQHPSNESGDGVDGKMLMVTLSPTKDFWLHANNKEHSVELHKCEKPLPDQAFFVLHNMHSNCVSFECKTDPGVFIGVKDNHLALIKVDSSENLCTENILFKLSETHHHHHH
- experimental-protocol: ELISA as Example 9, IL-33-his-biotin on streptavidin plate
Numbers only, as −log10 of the molar value.

Example results:
864F3-Hu3 (antibody, human IgG4 S228P, kappa, V domains shown, Humanized; also called humanized antibody 864F3-Hu3) VH: QVQLQESGPGLVKPSETLSLTCTVSGFSLSKYGVHWIRQPPGKGLEWIGVLRAGGTISYNSALMSRVTISVDTSKNQFSLKLSSVTAADTAVYYCARDHYYYSSFGGFASWGQGTLVTVSS VL: DIQMTQSPSSLSASVGDRVTITCLASQTIATWLAWYQQKPGKSPKLLIYAATRLADGVPSRFSGSGSGTDFTLTISSLQPEDFATYYCQQLYNTPYTFGQGTKVEIKR	9.86
874F7-HuG (antibody, human IgG4 S228P, kappa, V domains shown, Humanized; also called 874F7-Hµg; humanized antibody 874F7-HuG) VH: QVQLQESGPGLVKPSETLSLTCTVSGFSLSKYGVHWIRQPPGKGLEWIGVLRAGGSTGYNSALMSRVTISVDTSKNQFSLKLSSVTAADTAVYYCARDHYYYSSYGGFVYWGQGTLVTVSS VL: DIQMTQSPSSVSASVGDRVTITCLASQTIGAWLAWYQQKPGKSPKLLIYAATRLADGVPSRFSGSGSGTDFTLTISSLQPEDFATYYCQQLDSSPYTFGQGTKVEIKR	9.77
864F3-Hu1 (antibody, human IgG4 S228P, kappa, V domains shown, Humanized; also called humanized antibody 864F3-Hu1) VH: QVQLQESGPGLVKPSETLSLTCTVSGFSLTNYGVHWIRLPPGKGLEWIGVIRAGGSSDYNSALMSRVTISKDNSKSQVSLKLSSVTAADTAVYYCARDHYFSNSYGGSPYWGQGTLVTVSS VL: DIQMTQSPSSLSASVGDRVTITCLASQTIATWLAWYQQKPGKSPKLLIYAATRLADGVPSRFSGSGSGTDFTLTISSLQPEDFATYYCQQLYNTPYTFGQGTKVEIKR	9.60
871G1-ch (antibody, human IgG4 S228P, kappa, V domains shown, Chimeric: human IgG4 (S228P) and human kappa constant regions; also called chimeric antibody 871G1-ch) VH: QVHLKESGPGLVAPSQSLSITCNVSGFSLSKYGVHWIRQTPGRGLDWLGVLRAGGTISYNSALMSRLSISEDISKSQVFLKMNDLQTDDSAIYFCARDHYYYSSFGGFASWGQGTLVTVSA VL: DIQMTQSPASQSASLGESVTITCLASQTIGAWLAWYRQQPGKSPQLLIYAATRLADGVPSRFSGSGSGTKFSFKINNLQAEDFVIYYCQQLNSTPYTFGGGTRLEMRT	9.59

Assign pEC50 to the following record: 871G1-HuG (antibody, human IgG4 S228P, kappa, V domains shown, Humanized; also called humanized antibody 871G1-HuG) VH: QVQLQESGPGLVKPSETLSLTCTVSGFSLSKYGVHWIRQPPGKGLEWIGVLRAGGTISYNSALMSRVTISVDTSKNQFSLKLSSVTAADTAVYYCARDHYYYSSFGGFASWGQGTLVTVSS VL: DIQMTQSPSSVSASVGDRVTITCLASQTIGAWLAWYQQKPGKSPKLLIYAATRLADGVPSRFSGSGSGTDFTLTISSLQPEDFATYYCQQLNSTPYTFGQGTKVEIKR
9.73
